- Test system: liver cancer cell line (HepG-2)
- test_details: MTT anticancer activity, HepG-2
- Format: cell-based
- experimental_setup: Homo sapiens, HepG2, 72 h, read-out: HepG-2 IC50
I'd be grateful if you could share measured IC50 for these entries.
One number for each entry, in nM.

The following compounds each have a reported value; give each one's IC50.
1. Nc1n[nH]c2nc(-c3cccc(O)c3)cc(-c3cc4ccccc4nc3N3CCOCC3)c12
2. CCOc1nc(-c2cccc(O)c2)cc(-c2cc3cc(Cl)ccc3nc2N2CCOCC2)c1C#N
3. CCCOc1nc(-c2cccc(O)c2)cc(-c2cc3cc(OC)ccc3nc2N2CCOCC2)c1C#N
4. CCOc1nc(-c2cccc(O)c2)cc(-c2cc3cc(OC)ccc3nc2N2CCOCC2)c1C#N

66.7
59
16.4
13.2
